Target: rat CB2 (Rattus norvegicus (Rat))
Sequence (Q9QZN9 whole entry): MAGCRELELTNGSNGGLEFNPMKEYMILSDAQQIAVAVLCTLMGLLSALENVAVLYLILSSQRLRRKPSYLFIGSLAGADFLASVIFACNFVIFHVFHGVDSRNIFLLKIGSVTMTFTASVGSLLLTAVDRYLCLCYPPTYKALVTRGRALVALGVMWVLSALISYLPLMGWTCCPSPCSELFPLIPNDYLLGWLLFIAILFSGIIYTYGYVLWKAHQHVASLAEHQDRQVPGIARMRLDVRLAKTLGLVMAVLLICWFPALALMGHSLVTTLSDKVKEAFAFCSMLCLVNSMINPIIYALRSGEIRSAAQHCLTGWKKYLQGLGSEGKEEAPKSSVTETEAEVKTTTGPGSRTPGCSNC
Assay: CB2 cyclase functional assay (HitHunter cAMP)
Settings: HEK cells, forskolin 18 μM
pEC50: −log10 of the molar value.
Property measured: pEC50

molecule="CCCCn1nc(C(C)(C)C)s/c1=N\\C(=O)c1cc(C(F)(F)F)ccc1ON=C(N)C(C)(C)C [Example 166]" observed_result=8.50
molecule="CCCCn1nc(C(C)(C)C)s/c1=N\\C(=O)c1cc(C(F)(F)F)ccc1ONC(C)(C)C [Example 34]" observed_result=9.37
molecule="CC(C)(C)NOc1ccc(C(F)(F)F)cc1C(=O)/N=c1\\sc(C(C)(C)C)nn1CC1CCC1 [Example 165]" observed_result=9.03
molecule="CC(C)(C)NOc1ccc(C(F)(F)F)cc1C(=O)/N=c1\\sc(C(C)(C)C)nn1CCCC#N [Example 151]" observed_result=9.89
molecule="CCCCn1nc(C(C)(C)C)s/c1=N\\C(=O)c1cc(C(F)(F)F)ccc1ON=C(C)C(F)(F)F [Example 172]" observed_result=7.55
molecule="CCCCn1nc(C(C)(C)C)s/c1=N\\C(=O)c1cc(C(F)(F)F)ccc1ONC(=O)OC(C)(C)C [Example 141]" observed_result=8.95
molecule="CC(C)(C)NOc1ccc(C(F)(F)F)cc1C(=O)/N=c1\\sc(C(C)(C)C)nn1CCCC(F)(F)F [Example 164]" observed_result=9.55

###

Target: rat CB2 (Rattus norvegicus (Rat))
Assay: rat CB2 radioligand binding assay ([3H]CP 55,940 competition)
Conditions: HEK293 membranes, 0.5 nM [3H]CP 55,940; read-out: rat CB2 (Ki)
pKi: −log10 of the molar value.
Property measured: pKi

compound=CCCCn1/c(=N/C(=O)c2cc(C(F)(F)F)ccc2O/N=C(\C)C(F)(F)F)cc(C(C)(C)C)n1C observed_result=7.40
compound=CCCCn1nc(C(C)(C)C)s/c1=N\C(=O)c1cc(C(F)(F)F)ccc1ON=C(N)c1ccc(F)cc1 observed_result=8.15
compound=CCCCn1nc(C(C)(C)C)s/c1=N\C(=O)c1cc(C(F)(F)F)ccc1ON=C1CCCCCN1 observed_result=8.31
compound="CC(C)(C)NOc1ccc(C(F)(F)F)cc1C(=O)/N=c1\\sc(C(C)(C)C)nn1CC1CCO1 (stereo not shown)" observed_result=8.14
compound=CCCCn1nc(C(C)(C)C)s/c1=N\C(=O)c1ccc(C(F)(F)F)cc1ONC(C)(C)C observed_result=8.20
compound=CCCCn1nc(C(C)(C)C)s/c1=N\C(=O)c1cc(C(F)(F)F)ccc1NNc1ccccn1 observed_result=8.25
compound=CCCCn1nc(C(C)(C)C)s/c1=N\C(=O)c1cc(C(F)(F)F)ccc1ONC(C)(C)C observed_result=8.72

###

Molecular target: human CB2 receptors (Homo sapiens (Human), UniProt P34972)
Sequence (P34972 whole entry): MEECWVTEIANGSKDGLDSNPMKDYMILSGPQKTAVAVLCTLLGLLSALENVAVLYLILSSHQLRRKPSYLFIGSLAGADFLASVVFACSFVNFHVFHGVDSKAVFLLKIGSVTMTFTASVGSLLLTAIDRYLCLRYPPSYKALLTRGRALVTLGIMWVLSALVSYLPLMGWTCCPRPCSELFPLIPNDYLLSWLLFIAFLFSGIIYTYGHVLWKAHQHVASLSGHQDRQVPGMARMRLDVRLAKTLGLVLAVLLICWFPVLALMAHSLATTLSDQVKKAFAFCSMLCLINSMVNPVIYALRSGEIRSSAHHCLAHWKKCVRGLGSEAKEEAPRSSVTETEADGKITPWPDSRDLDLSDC
Assay: human CB2 radioligand binding assay ([3H]CP 55,940 competition)
// boundary case: Ki equal to 20 nM maps to not fulfilled; strictly smaller maps to fulfilled

line_notation=CCCCn1nc(C(C)(C)C)s/c1=N\C(=O)c1cc(C(F)(F)F)ccc1N/N=C\c1cccc(C)n1 discrete_label="not fulfilled"
line_notation=CCCCn1nc(C(C)(C)C)s/c1=N\C(=O)c1cc(C(F)(F)F)ccc1N(/N=C/c1cccc(C)n1)C(=O)OC(C)(C)C discrete_label="not fulfilled"
line_notation=Cn1c(C(C)(C)C)c/c(=N\C(=O)c2cc(C(F)(F)F)ccc2ONC(C)(C)C)n1C[C@H]1CCCO1 discrete_label="not fulfilled"
line_notation=CCCCn1nc(C(C)(C)C)s/c1=N\C(=O)c1cc(C(F)(F)F)ccc1NNC(=O)OC(C)(C)C discrete_label=fulfilled
line_notation=CCCCn1nc(C(C)(C)C)s/c1=N\C(=O)c1cc(C(F)(F)F)ccc1ON(C)C discrete_label="not fulfilled"
line_notation=CCCCn1nc(C(C)(C)C)s/c1=N\C(=O)c1cc(C(F)(F)F)ccc1NNC(=O)OC discrete_label=fulfilled
line_notation=Cn1c(C(C)(C)C)c/c(=N\C(=O)c2cc(C(F)(F)F)ccc2ONC(C)(C)C)n1CC1CCC1 discrete_label="not fulfilled"
